# Relative MIC (log10) listing for each entry below
- System: K. pneumoniae ATCC 10031 (SEN) and K. pneumoniae ATCC 700603 (MDR)
- Procedure text: Adaptive laboratory evolution (ALE), relative MIC of evolved lines
- Format: cell-based, Klebsiella pneumoniae
- Condition notes: KP-SEN (Klebsiella pneumoniae ATCC 10031), evolved line 10
- Source text: Using the same set of bacterial strains, we initiated adaptive laboratory evolution with the aim to maximize the level of antibiotic resistance in the populations achieved during a longer, but fixed time period. […] A robotic liquid handling system was used to automatically prepare a 11 to 16-step serial dilution in 384-well microtiter plates (Greiner). […] Cell growth was monitored by measuring the optical density (OD600 values, using Biotek Synergy microplate reader). […]
Where a SMILES comes first, the peptide text is derived from it. Bridges are numbered along the chain shown (N, C = ends). [ ]: non-standard residue; d: D form. The star is where a group is joined. X1 = NC[C@@H](CC(=O)*)c1cccc(Cl)c1; Dab = NCC[C@H](N)C(=O)O; Dap = NC[C@H](N)C(=O)O
Give the number; log10 is assumed, so skip it.

// worked examples, Relative MIC (log10) included
Query: Value wanted: Relative MIC (log10) (K. pneumoniae ATCC 10031 (SEN) and K. pneumoniae ATCC 700603 (MDR)) of entry C[C@@H](O)[C@H]1C(=O)N2C(C(=O)O)=C(S[C@H]3CC[S@@+]([O-])C3)S[C@H]12
Result: 1.505

Query: Next record, please: CC(C)C[C@@H]1NC(=O)[C@@H](Cc2ccccc2)NC(=O)[C@H](CCN)NC(=O)[C@@H](NC(=O)[C@H](CN)NC(=O)[C@@H](NC(=O)C[C@H](CN)c2cccc(Cl)c2)[C@@H](C)O)CCNC(=O)[C@H]([C@@H](C)O)NC(=O)[C@H](CCN)NC(=O)[C@H](CCN)NC1=O [SPR206] (X1-T[Dap][Dab][Dab][dF]L[Dab][Dab]T; lactam 3-C (inferred); N-terminus assumed)
Result: 3.311

Query: Then this compound: CN(C)[C@@H]1C(O)=C(C(N)=O)C(=O)[C@@]2(O)C(O)=C3C(=O)c4c(O)c(NC(=O)CN5CCCC5)cc(F)c4C[C@H]3C[C@@H]12
Result: 2.709

---
Query: Missing value: Relative MIC (log10), K. pneumoniae ATCC 10031 (SEN) and K. pneumoniae ATCC 700603 (MDR), entry C[C@@H]1CN2c3c(cc4c(N5C(=O)OC[C@@H]5C)noc4c3F)CC3(C(=O)NC(=O)NC3=O)[C@H]2[C@H](C)O1 . Fill in?
Result: 3.0103

----------
- Test system: K. pneumoniae ATCC 10031 (SEN) and K. pneumoniae ATCC 700603 (MDR)
- Procedure text: Adaptive laboratory evolution (ALE), relative MIC of evolved lines
- Format: cell-based, Klebsiella pneumoniae
- Condition notes: Klebsiella pneumoniae ATCC 10031 (KP-SEN), evolved line 9
Outcome measure: Relative MIC
Please respond with just the number, no unit label.

Worked set:
Query: Fill blank: measured Relative MIC of the compound CN(C)[C@@H]1C(O)=C(C(N)=O)C(=O)[C@@]2(O)C(O)=C3C(=O)c4c(O)c(NC(=O)CN5CCCC5)cc(F)c4C[C@H]3C[C@@H]12 [Eravacycline] is ____.
Result: 256

Query: Now this one: C[C@H]1c2cccc(O)c2C(=O)C2=C(O)[C@]3(O)C(=O)C(C(N)=O)=C(O)[C@@H](N(C)C)[C@@H]3[C@@H](O)[C@@H]21 [Doxycycline]
Result: 256

Query: Entry to check: CN[C@@H]1[C@@H](O[C@H]2O[C@H](CO)[C@@H](N)[C@H](O)[C@H]2O)OC2C[C@@H](N)[C@@H](O[C@H]3[C@H](O)[C@@H](O)[C@H](N)C[C@@H]3N)OC2[C@@H]1O (stereo partly drawn) [Apramycin]
Result: 64

Query: And CC(C)c1ccc(Cn2ccc3c4c(N)nc(NC5CC5)nc4ccc32)cc1 [SCH79797] ?
Result: 8

Query: Please answer likewise for Nc1nc(-n2cc(C(=O)O)c(=O)c3cc(F)c(N4CC(O)C4)c(Cl)c32)c(F)cc1F [Delafloxacin]
Result: 65536

Now look at this entry.
Query: What measured Relative MIC goes with C[C@@H](O)[C@H]1C(=O)N2C(C(=O)O)=C(S[C@H]3CC[S@@+]([O-])C3)S[C@H]12 [Sulopenem] ?
Result: 16

----------
- System: K. pneumoniae ATCC 10031 (SEN) and K. pneumoniae ATCC 700603 (MDR)
- Procedure text: Frequency-of-resistance (FoR) assay, relative MIC of mutants
- Type: cell-based, Klebsiella pneumoniae
- Condition notes: Klebsiella pneumoniae ATCC 10031 (KP-SEN); evolved line 1 versus ancestor
Entries and their Relative MIC values follow.
Give the figure by itself; no unit, no explanation.

Below, 3 compounds whose answers are already recorded.
Query: What Relative MIC value was documented for this compound, C[C@@H]1CN2c3c(cc4c(N5C(=O)OC[C@@H]5C)noc4c3F)CC3(C(=O)NC(=O)NC3=O)[C@H]2[C@H](C)O1 [Zoliflodacin] ?
Result: 32

Query: Same question, CN(C)[C@@H]1C(O)=C(C(N)=O)C(=O)[C@@]2(O)C(O)=C3C(=O)c4c(O)c(NC(=O)CN5CCCC5)cc(F)c4C[C@H]3C[C@@H]12 [Eravacycline] this time
Result: 16

Query: Also need O=c1ccc2ncc(=O)n3c2n1C[C@H]3CN1CCC(NCc2cc3c(cn2)OCCC3)CC1 [Gepotidacin] , thanks.
Result: 1

***
Query: Query (compound): CC(C)c1ccc(Cn2ccc3c4c(N)nc(NC5CC5)nc4ccc32)cc1 [SCH79797] ; field requested: Relative MIC
Result: 1

Query: Similarly, Nc1nc(-n2cc(C(=O)O)c(=O)c3cc(F)c(N4CC(O)C4)c(Cl)c32)c(F)cc1F [Delafloxacin] ?
Result: 32

Query: Try this compound too: CNC(C)C1CCC(N)C(OC2C(N)CC(N)C(OC3OCC(C)(O)C(NC)C3O)C2O)O1 (stereo not shown) [Gentamicin]
Result: 2

Query: And the next one, CN(C)c1cc(CNCC(C)(C)C)c(O)c2c1C[C@H]1C[C@H]3[C@H](N(C)C)C(O)=C(C(N)=O)C(=O)[C@@]3(O)C(O)=C1C2=O [Omadacycline] ?
Result: 32

----------
Below, each entry is listed alongside its reported Relative MIC.
- Tested on: A. baumannii ATCC 17978 (SEN) and A. baumannii ATCC BAA-1605 (MDR)
- Procedure text: Adaptive laboratory evolution (ALE), relative MIC of evolved lines
- Format: cell-based, Acinetobacter baumannii
- Condition notes: AB-SEN (ATCC 17978); evolved line 9; MIC of evolved line / MIC of ancestor

Query: Endpoint output: Relative MIC of CN(C)[C@@H]1C(O)=C(C(N)=O)C(=O)[C@@]2(O)C(O)=C3C(=O)c4c(O)c(NC(=O)CN5CCCC5)cc(F)c4C[C@H]3C[C@@H]12 . Value?
Result: 128

Query: And for C[C@H]1c2cccc(O)c2C(=O)C2=C(O)[C@]3(O)C(=O)C(C(N)=O)=C(O)[C@@H](N(C)C)[C@@H]3[C@@H](O)[C@@H]21 ?
Result: 16

Query: Okay, and CN[C@@H]1[C@@H](O[C@H]2O[C@H](CO)[C@@H](N)[C@H](O)[C@H]2O)OC2C[C@@H](N)[C@@H](O[C@H]3[C@H](O)[C@@H](O)[C@H](N)C[C@@H]3N)OC2[C@@H]1O (stereo partly shown) ?
Result: 32

Could you now look at the following compound, please?
Query: Which Relative MIC is reported for this compound? Nc1nc(-n2cc(C(=O)O)c(=O)c3cc(F)c(N4CC(O)C4)c(Cl)c32)c(F)cc1F
Result: 128

----------
Here, each record is paired with measured Relative MIC data.
- System: K. pneumoniae ATCC 10031 (SEN) and K. pneumoniae ATCC 700603 (MDR)
- Procedure text: Adaptive laboratory evolution (ALE), relative MIC of evolved lines
- Format: cell-based, Klebsiella pneumoniae
- Condition notes: Klebsiella pneumoniae ATCC 10031 (KP-SEN), evolved line 6
Where a SMILES comes first, the peptide text is derived from it. Bridges are numbered along the chain shown (N, C = ends). [ ]: non-standard residue; d: D form. The star is where a group is joined. X1 = NC[C@@H](CC(=O)*)c1cccc(Cl)c1; Dab = NCC[C@H](N)C(=O)O; Dap = NC[C@H](N)C(=O)O
No unit in the answer, please; the number alone is enough.

Worked examples, 6 compounds total:
Query: Looking for the measured Relative MIC of C[C@@H]1CN2c3c(cc4c(N5C(=O)OC[C@@H]5C)noc4c3F)CC3(C(=O)NC(=O)NC3=O)[C@H]2[C@H](C)O1 , can you help?
Result: 1024

Query: // next record CC(C)c1ccc(Cn2ccc3c4c(N)nc(NC5CC5)nc4ccc32)cc1
Result: 2

Query: Same again, this time with C[C@H]1c2cccc(O)c2C(=O)C2=C(O)[C@]3(O)C(=O)C(C(N)=O)=C(O)[C@@H](N(C)C)[C@@H]3[C@@H](O)[C@@H]21
Result: 256

Query: // next record CN[C@@H]1[C@@H](O[C@H]2O[C@H](CO)[C@@H](N)[C@H](O)[C@H]2O)OC2C[C@@H](N)[C@@H](O[C@H]3[C@H](O)[C@@H](O)[C@H](N)C[C@@H]3N)OC2[C@@H]1O (stereo partly shown)
Result: 64

Query: Can you handle C[C@@H](O)[C@H]1C(=O)N2C(C(=O)O)=C(S[C@H]3CC[S@@+]([O-])C3)S[C@H]12 next?
Result: 32

Query: Then this compound: CC(C)C[C@@H]1NC(=O)[C@@H](Cc2ccccc2)NC(=O)[C@H](CCN)NC(=O)[C@@H](NC(=O)[C@H](CN)NC(=O)[C@@H](NC(=O)C[C@H](CN)c2cccc(Cl)c2)[C@@H](C)O)CCNC(=O)[C@H]([C@@H](C)O)NC(=O)[C@H](CCN)NC(=O)[C@H](CCN)NC1=O [SPR206] (X1-T[Dap][Dab][Dab][dF]L[Dab][Dab]T; lactam 3-C (inferred); N-terminus assumed)
Result: 2048

// moving on: another record for Relative MIC
Query: GET /values?readout=Relative MIC&item= Nc1nc(-n2cc(C(=O)O)c(=O)c3cc(F)c(N4CC(O)C4)c(Cl)c32)c(F)cc1F
Result: 16384
